# tested_system: hERG (Homo sapiens)
# Construct: expressed in transfected cells; host or cells: Chinese Hamster Ovary cells (hERG-CHO), stably transfected
# Sequence (Q12809 whole entry): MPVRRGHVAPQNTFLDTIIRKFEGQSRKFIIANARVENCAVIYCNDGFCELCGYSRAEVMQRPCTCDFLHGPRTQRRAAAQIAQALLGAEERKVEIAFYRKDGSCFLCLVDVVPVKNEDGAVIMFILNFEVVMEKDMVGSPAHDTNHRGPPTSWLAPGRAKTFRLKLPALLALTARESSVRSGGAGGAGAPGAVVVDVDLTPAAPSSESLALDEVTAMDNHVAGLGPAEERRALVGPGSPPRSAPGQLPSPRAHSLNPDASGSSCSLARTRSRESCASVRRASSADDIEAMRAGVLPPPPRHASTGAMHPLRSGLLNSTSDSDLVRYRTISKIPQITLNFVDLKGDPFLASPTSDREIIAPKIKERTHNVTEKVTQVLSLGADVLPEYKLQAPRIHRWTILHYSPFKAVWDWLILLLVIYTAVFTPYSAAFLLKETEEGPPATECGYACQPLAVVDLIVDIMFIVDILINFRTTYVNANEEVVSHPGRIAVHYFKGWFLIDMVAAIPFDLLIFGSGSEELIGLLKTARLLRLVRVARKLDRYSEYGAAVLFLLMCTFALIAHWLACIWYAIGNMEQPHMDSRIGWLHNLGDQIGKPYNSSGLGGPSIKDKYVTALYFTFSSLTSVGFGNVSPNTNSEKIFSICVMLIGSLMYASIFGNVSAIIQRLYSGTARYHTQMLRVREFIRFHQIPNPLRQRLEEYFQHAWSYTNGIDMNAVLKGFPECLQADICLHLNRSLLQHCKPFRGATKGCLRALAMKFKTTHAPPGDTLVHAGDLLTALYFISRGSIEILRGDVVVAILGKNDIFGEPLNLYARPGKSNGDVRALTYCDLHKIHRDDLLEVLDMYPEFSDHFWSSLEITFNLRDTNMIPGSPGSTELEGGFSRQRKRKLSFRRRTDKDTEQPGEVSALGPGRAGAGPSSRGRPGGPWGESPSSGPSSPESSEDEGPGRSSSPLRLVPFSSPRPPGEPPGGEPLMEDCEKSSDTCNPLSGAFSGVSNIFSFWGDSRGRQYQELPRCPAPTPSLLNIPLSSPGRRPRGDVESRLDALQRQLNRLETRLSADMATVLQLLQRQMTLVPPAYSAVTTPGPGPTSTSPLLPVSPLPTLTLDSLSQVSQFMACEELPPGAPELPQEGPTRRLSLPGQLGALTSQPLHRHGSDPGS
# assay_protocol: hERG Ion Channel Assay (Q-patch, hERG-CHO cells)
# Format: cell-based
# condition_summary: human, CHO cells stably transfected with hERG (hERG-CHO), pH 7.4, 30 μM, hERG tail current

{"molecule": "C[C@]1(O)CC[C@H](NS(=O)(=O)c2ccc(-c3ncc(F)cc3F)cc2)CC1 [HMC-N-02-A]", "units_symbol": "%", "inhibition at 5 min, 30 µM": 31}
{"molecule": "C[C@]1(O)CC[C@H](NS(=O)(=O)c2ccc(-c3ncc(F)cc3F)c(F)c2)CC1 [HMC-N-01-A]", "units_symbol": "%", "inhibition at 5 min, 30 µM": 2}
{"molecule": "C[C@]1(O)CC[C@H](NS(=O)(=O)c2ccc(-c3ncc(Cl)cc3Cl)c(F)c2)CC1 [HMC-N-04-A]", "units_symbol": "%", "inhibition at 5 min, 30 µM": 26}
{"molecule": "Cc1cc(S(=O)(=O)NC2CCC(C)(O)CC2)ccc1-c1ccc(F)cc1F (single isomer, unassigned) [REF001, reference compound]", "units_symbol": "%", "inhibition at 5 min, 30 µM": 60}

----------
# assay_protocol: Rodent pharmacokinetics study
# Type: in vivo, Sprague-Dawley rats
# condition_summary: rat, intravenous 1 mg/kg
The following compounds are listed with their measured i.v. AUC values.
endpoint: i.v. AUC (ng·min/mL)

{"compound": "C[C@]1(O)CC[C@@H](NS(=O)(=O)c2ccc(-c3ccc(F)cc3F)cc2)CC1 [ABD899, reference compound]", "numeric_readout": 2133}
{"compound": "C[C@]1(O)CC[C@H](NS(=O)(=O)c2ccc(-c3ccc(F)cc3C(F)(F)F)cc2)CC1", "numeric_readout": 546}
{"compound": "O=S(=O)(N[C@H]1CC[C@H](O)CC1)c1ccc(-c2ncc(Cl)cc2Cl)cc1 [ABD836, reference compound]", "numeric_readout": 2142}
{"compound": "C[C@]1(O)CC[C@H](NS(=O)(=O)c2ccc(-c3c(F)cc(F)cc3F)cc2)CC1", "numeric_readout": 1427}
{"compound": "C[C@]1(O)CC[C@H](NS(=O)(=O)c2ccc(-c3ccc(Cl)cc3C#N)cc2)CC1", "numeric_readout": 900}
{"compound": "C[C@]1(O)CC[C@H](NS(=O)(=O)c2ccc(-c3ncc(Cl)cc3Cl)c(F)c2)CC1", "numeric_readout": 1279}
{"compound": "C[C@]1(O)CC[C@@H](NS(=O)(=O)c2ccc(-c3ncc(F)cc3F)c(F)c2)CC1", "numeric_readout": 2824}
{"compound": "C[C@]1(O)CC[C@@H](NS(=O)(=O)c2ccc(-c3ccc(Cl)cc3C#N)cc2)CC1", "numeric_readout": 1539}
{"compound": "C[C@]1(O)CC[C@H](NS(=O)(=O)c2ccc(-c3ncc(F)cc3F)c(F)c2)CC1", "numeric_readout": 740}
{"compound": "Cc1cc(S(=O)(=O)N[C@H]2CC[C@H](O)CC2)ccc1-c1ccc(F)cc1F", "numeric_readout": 1081}
{"compound": "Cc1cc(S(=O)(=O)NC2CCC(C)(O)CC2)ccc1-c1ccc(F)cc1F (single isomer, unassigned) [REF001, reference compound]", "numeric_readout": 963}
{"compound": "C[C@]1(O)CC[C@@H](NS(=O)(=O)c2ccc(-c3ncc(F)cc3F)cc2)CC1", "numeric_readout": 1931}
